src = patent US11760751B2

assay: Pharmacokinetic evaluation in SD rats at different oral doses; format: in vivo, Sprague Dawley rats; details: SD rat; single oral administration 5 mg/kg; 5 mg/kg; read-out: Peak concentration Cmax
MEASURED_PARAMETER: Cmax (nM)
Response body: numeric value in nM, unit text excluded.

Just so you know, measured Cmax for CC(C)Oc1ccc(-c2nc(-c3cccc4c3CCC43CCN(CC4(C(=O)O)CC4)C3)no2)cc1C#N (single isomer, unassigned) [Compound 22A] came out at 2500

----------
Assay: Pharmacokinetic evaluation in CD-1 mice (intravenous and oral)
Format: in vivo
Details: male, mouse, plasma, intravenous 0.5 mg/kg, oral 2.0 mg/kg, read-out: Bioavailability F
Description: Test Embodiment 4: Pharmacokinetic Evaluation of Compound in Mice Experimental objective: to test the pharmacokinetics of the compound in CD-1 mice CD-1 mice (male, 20-40 g, 6-10 weeks old, Shanghai BK) The standard protocol was used to test the pharmacokinetic characteristics of rodents after intravenous injection and oral administration of the compound. […]
Where a name gives a salt, the structure may show the parent alone.
MEASURED_PARAMETER: bioavailability (%)
Response body: numeric value in %, unit text excluded.

CC(C)Oc1ncc(-c2nc(-c3cccc4c3CCC43CCN(C(=O)CO)C3)no2)cc1C#N (stereo not drawn) = 80.3
CC(C)Oc1ccc(-c2nc(-c3cccc4c3CCC43CCN(C(=O)CO)C3)no2)cc1C#N (stereo not drawn) = 70.1

// next item, bioavailability requested
Just so you know, measured bioavailability for CC(C)Oc1ccc(-c2nc(-c3cccc4c3CCC43CCN(CC4(C(=O)O)CC4)C3)no2)cc1C#N (stereo not drawn) [Hydrochloride of compound 22] came out at 62.5

----------
experiment: Pharmacokinetic evaluation in SD rats (intravenous and oral); format: in vivo; conditions: male, Sprague-Dawley, plasma; SD rat; oral administration 2.0 mg/kg; read-out: Area under the drug-time curve AUC0-last PO
MEASURED_PARAMETER: AUC(0-t)

CC(C)Oc1ccc(-c2nc(-c3cccc4c3CCC43CCN(C(=O)[C@@H](O)CO)C3)no2)cc1C#N (some centres unmarked) = 22.9 µM·h

// next item, AUC(0-t) requested
Just so you know, measured AUC(0-t) for COc1cc(-c2nc(-c3cccc4c3CCC43CCN(CC4(C(=O)O)CC4)C3)no2)cc(C2CCCC2)n1 (centres unmarked) came out at 7.14 µM·h

----------
Emax overview
biological target: S1PR1 (Homo sapiens); construct: expressed in transfected cells; assay: In vitro S1PR1 agonistic activity, PathHunter cell line, chemiluminescent detection; format: cell-based; settings: % activity vs maximum control ligand
Sequence (P21453 whole entry): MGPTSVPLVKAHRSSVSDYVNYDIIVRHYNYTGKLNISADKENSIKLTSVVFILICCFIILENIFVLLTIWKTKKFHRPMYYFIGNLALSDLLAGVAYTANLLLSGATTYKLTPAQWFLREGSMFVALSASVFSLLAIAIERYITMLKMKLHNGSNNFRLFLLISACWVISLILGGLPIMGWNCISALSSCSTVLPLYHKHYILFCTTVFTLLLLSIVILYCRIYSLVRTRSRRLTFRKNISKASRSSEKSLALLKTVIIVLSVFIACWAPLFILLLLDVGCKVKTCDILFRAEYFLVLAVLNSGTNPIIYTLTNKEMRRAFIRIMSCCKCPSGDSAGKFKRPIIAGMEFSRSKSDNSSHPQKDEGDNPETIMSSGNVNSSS
Where a name gives a salt, the structure may show the parent alone.
Response body: numeric value in %, unit text excluded.

A selection of reference data follows.
CC(C)Oc1ccc(-c2nc(-c3cccc4c3CCC43CCN(C(=O)CO)C3)ns2)cc1C#N (stereo not shown) = 90.4
CC(C)Oc1ccc(-c2nc(-c3cccc4c3CCC43CCN(C(=O)CO)C3)no2)cc1Cl (stereo not shown) = 84.6
CC(C)Oc1ccc(-c2cnc(-c3cccc4c3CCC43CCN(C(=O)CO)C3)cn2)cc1C#N (stereo not shown) = 77.8
COCC(=O)N1CCC2(CCc3c(-c4noc(-c5ccc(OC(C)C)c(C#N)c5)n4)cccc32)C1 (stereo not shown) = 88.6
CC(C)Oc1ccc(-c2nc(-c3cccc4c3CCC43CCN(C(=O)CN)C3)no2)cc1C#N (stereo not shown) [Hydrochloride of compound 6] = 115

Just so you know, measured Emax for CC(C)Oc1ncc(-c2nc(-c3cccc4c3CCC43CCN(CC4(C(=O)O)CC4)C3)no2)cc1Cl (stereo not shown) [Hydrochloride of compound 39] came out at 144
